Quick reference for Inhibition of binding (%) among some binders
# experimental.target: T1, human TSH receptor (full length), coated on tubes (human, UniProt P16473 22-764)
# T1 construct: TSHR coated tubes as described in WO2004/050708A2; The receptor is full length and held on plastic tubes through a mouse MAb to the TSHR; also called thyroid stimulating hormone receptor
# measurement.description: inhibition of 125I-K1-70 Fab (competitor) binding to TSHR coated tubes; 1 µg/mL in assay buffer
property.measured: Inhibition of binding (%)

* K1-18 Fab (Fab, V domains shown) VH: EVQLVQSGAEVKKPGESLKISCKGSGYSFTNYWIGWVRQMPGKGLEWMGIIYPYDSDTRYSPSFEGQVTISADKSIRTAYLHWSSLKASDTAMYYCVRPRDGSYPYDAFDIWGQGTMVTVSS VL: EIVLTQSPGTLSLSPGERATLSCRASQSVSNNYLAWYQQKPGQAPRLLIYGASSRATGIPDRFSGSGSGTDFTLTISRLEPEDFAVYYCQHCGSSLRAFGQGTKVEIKR | 79
* K1-70 Fab (Fab, V domains shown) VH: EVQLVQSGAEVKKPGQSLKISCKASGYSLTDNWIGWVRQKPGKGLEWMGIIYPGDSDTRYSPSFQGQVTISADKSINTAYLQWSSLKASDTAIYYCVGLDWNYNPLRYWGPGTLVTVSS VL: QSVLTQPPSVSAAPGQKVTISCSGSSSDIGSNYVSWYQQFPGTAPKLLIYDNNKRPSAIPDRFSGSKSGTSATLGITGLQTGDEADYYCGTWDSRLGIAVFGGGTQLTVLG | 93.5
* K1-18 IgG (antibody, V domains shown, Human IgG1 kappa purified from hetero-hybridoma supernatant; also called human monoclonal autoantibody to the TSHR with TSH agonist activity) VH: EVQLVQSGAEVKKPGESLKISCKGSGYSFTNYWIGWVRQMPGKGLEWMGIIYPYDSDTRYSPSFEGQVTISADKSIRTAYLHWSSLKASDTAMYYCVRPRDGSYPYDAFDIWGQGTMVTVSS VL: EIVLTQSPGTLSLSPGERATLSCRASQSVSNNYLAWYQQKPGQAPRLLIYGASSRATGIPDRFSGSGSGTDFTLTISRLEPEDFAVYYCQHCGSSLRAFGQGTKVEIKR | 93.1
